Recorded Population Mitotic Cells (%) by entry
- Test system: U2OS
- assayOverview: Multiplex assay against U2OS
- Type: toxicity, cell-based
- setupConditions: human, 12 h, 10 µM, compound concentration 10 uM, replicate 1
Report as a plain number; the unit % is understood.

Observe how each entry below is paired with its result.
{"compound": "Cc1nc2ccc(Oc3ccc(F)cc3)cc2c(=O)n1C[C@H]1CCCN(C(C)C)C1.Cl", "resultUnits": "%", "readoutNumber": 35}
{"compound": "Cc1ccc(/C(=C\\CN2CCCC2)c2ccccn2)cc1 [TRIPROLIDINE]", "resultUnits": "%", "readoutNumber": 12}
{"compound": "COc1cc(C(=O)N(CCCc2ccccc2)Cc2ccc(CC(=O)O)cc2)cc(OC)c1C", "resultUnits": "%", "readoutNumber": 17}
{"compound": "CN(C)c1ccnc2sc3c(=O)n(N4CCCCCC4)cnc3c12", "resultUnits": "%", "readoutNumber": 58}

Challenge: Using known records, supply Population Mitotic Cells (%) for CNC[C@H](O)c1ccc(O)c(O)c1 [EPINEPHRINE]
Response given: 8

====

- Tested on: HEK-293T
- assayOverview: Multiplex assay against HEK293T
- Type: toxicity, cell-based
- setupConditions: human, 12 h, 1 µM, compound concentration 1 uM, replicate 2
quantity: Population Fragmented Nuclei (%)
Report as a plain number; the unit % is understood.

Observe how each entry below is paired with its result.
{"molecule": "c1cc(OCCCN2CCCCC2)ccc1CN1CCCCC1 [JNJ-5207852]", "studyTarget": "HEK-293T", "Population Fragmented Nuclei (%)": 10}
{"molecule": "CN(C)c1ccnc2sc3c(=O)n(N4CCCCCC4)cnc3c12", "studyTarget": "HEK-293T", "Population Fragmented Nuclei (%)": 5}
{"molecule": "CN1CCN2c3ncccc3Cc3ccccc3C2C1 (centres undefined) [MIRTAZAPINE]", "studyTarget": "HEK-293T", "Population Fragmented Nuclei (%)": 3}

Next item in the queue.
Challenge: Using known records, supply Population Fragmented Nuclei (%) for CC(C)(C)c1ccc(S(=O)(=O)Nc2ccc(Cl)cc2C(=O)c2cc[n+]([O-])cc2)cc1 [VERCIRNON]
Response given: 5

====

- Tested on: U2OS
- assayOverview: Multiplex assay against U2OS
- Type: toxicity, cell-based
- setupConditions: human, 12 h, 10 µM, compound concentration 10 uM, replicate 2
quantity: Population Hoechst High Intensity Objects (%)
Please state the number and follow it with the unit.

{"compound": "CCCn1c(=O)c2[nH]c(C3CCCC3)nc2n(CCC)c1=O", "result": "3%"}
{"compound": "CC(C)(C)c1ccc(S(=O)(=O)Nc2ccc(Cl)cc2C(=O)c2cc[n+]([O-])cc2)cc1", "result": "0%"}

Challenge: Using known records, supply Population Hoechst High Intensity Objects (%) for CN1CCN(c2nc3cc(C(F)(F)F)ccc3n3cccc23)CC1.O=C(O)/C=C\C(=O)O.O=C(O)/C=C\C(=O)O
Response given: 2%

Challenge: Using known records, supply Population Hoechst High Intensity Objects (%) for O=S(=O)(c1ccccc1)c1cnc2c(N3CCNCC3)cccc2c1 [INTEPIRDINE]
Response given: 2%

Challenge: Using known records, supply Population Hoechst High Intensity Objects (%) for O=C(O)c1cc2ccccc2c(Cc2c(O)c(C(=O)O)cc3ccccc23)c1O
Response given: 0%

====

- Test system: HEK-293T
- assayOverview: Multiplex assay against HEK293T
- Type: toxicity, cell-based
- setupConditions: human, 48 h, 1 µM, compound concentration 1 uM, replicate 1
Recorded Population Apoptotic (%) by entry

{"compound": "C[C@@H]1C[C@H]2[C@@H]3CCC4=CC(=O)C=C[C@]4(C)[C@@]3(F)[C@@H](O)C[C@]2(C)[C@@]1(O)C(=O)CO [DEXAMETHASONE]", "Population Apoptotic (%)": "30%"}
{"compound": "CCOc1c2c(c(OCC)c3ncccc13)CN(c1ccc(CS(=O)(=O)NC(=O)Cc3ccccc3OC)cc1C)C2=O", "Population Apoptotic (%)": "29%"}
{"compound": "CC1(COc2ccc3c(c2)ncn3-c2ccc3cccc(N4CCC(N)CC4)c3n2)COC1 [CRENOLANIB]", "Population Apoptotic (%)": "29%"}
{"compound": "COc1ccc2c(c1)C(C(=O)N(Cc1ccc(N(C)C)cc1)c1ccc(C(C)C)cc1)CCC2.Cl (stereo not drawn)", "Population Apoptotic (%)": "20%"}
{"compound": "CCNC1(C(N)=O)CCN(c2ncnc3c2nc(-c2ccccc2Cl)n3-c2ccc(Cl)cc2)CC1 [OTENABANT]", "Population Apoptotic (%)": "34%"}

Challenge: Using known records, supply Population Apoptotic (%) for COc1cc(C(=O)N(CCCc2ccccc2)Cc2ccc(CC(=O)O)cc2)cc(OC)c1C
Response given: 30%

Challenge: Using known records, supply Population Apoptotic (%) for O=C(NCCO)c1cccc(-c2cc(Nc3ccc(OC(F)(F)F)cc3)ncn2)c1
Response given: 17%

Challenge: Using known records, supply Population Apoptotic (%) for Cc1ccc(F)cc1C(=O)Nc1ccc(C(=O)N2Cc3cccn3Cc3ccccc32)c(Cl)c1 [LIXIVAPTAN]
Response given: 22%

====

- Test system: HEK-293T
- assayOverview: Multiplex assay against HEK293T
- Format: toxicity, cell-based
- setupConditions: human, 24 h, 10 µM, compound concentration 10 uM, replicate 1
Recorded Population Healthy Nuclei (%) by entry
Report as a plain number; the unit % is understood.

{"compound": "C[C@@H]1C[C@H]2[C@@H]3CCC4=CC(=O)C=C[C@]4(C)[C@@]3(F)[C@@H](O)C[C@]2(C)[C@@]1(O)C(=O)CO [DEXAMETHASONE]", "studyTarget": "HEK-293T", "Population Healthy Nuclei (%)": 74}

Challenge: Using known records, supply Population Healthy Nuclei (%) for CCCn1c(=O)c2[nH]c(C3CCCC3)nc2n(CCC)c1=O
Response given: 76

Challenge: Using known records, supply Population Healthy Nuclei (%) for CCCN1CCC[C@@H]2Cc3n[nH]cc3C[C@H]21.Cl [QUINPIROLE HYDROCHLORIDE]
Response given: 77

Challenge: Using known records, supply Population Healthy Nuclei (%) for CCNC1(C(N)=O)CCN(c2ncnc3c2nc(-c2ccccc2Cl)n3-c2ccc(Cl)cc2)CC1 [OTENABANT]
Response given: 71

====

- Test system: HEK-293T
- assayOverview: Multiplex assay against HEK293T
- Format: toxicity, cell-based
- setupConditions: human, 48 h, 10 µM, compound concentration 10 uM, replicate 1
quantity: Population Apoptotic (%)
Report as a plain number; the unit % is understood.

Observe how each entry below is paired with its result.
{"compound": "COc1ccccc1N1CCN(CCCCNC(=O)c2ccc3ccccc3c2)CC1.Cl", "resultUnits": "%", "Population Apoptotic (%)": 60}
{"compound": "O=C(NCC(=O)N1CC[C@H](N[C@H]2CC[C@@](O)(c3ccc(-c4ncccn4)cn3)CC2)C1)c1cccc(C(F)(F)F)c1 [PF-4136309]", "resultUnits": "%", "Population Apoptotic (%)": 31}
{"compound": "CCNC1(C(N)=O)CCN(c2ncnc3c2nc(-c2ccccc2Cl)n3-c2ccc(Cl)cc2)CC1 [OTENABANT]", "resultUnits": "%", "Population Apoptotic (%)": 52}
{"compound": "N#Cc1c(N)nc(SCc2csc(-c3ccc(Cl)cc3)n2)c(C#N)c1-c1ccc(OCCO)cc1 [CAPADENOSON]", "resultUnits": "%", "Population Apoptotic (%)": 66}
{"compound": "CCCn1c(=O)c2[nH]c(C3CCCC3)nc2n(CCC)c1=O", "resultUnits": "%", "Population Apoptotic (%)": 29}

Challenge: Using known records, supply Population Apoptotic (%) for CCCN1CCC[C@@H]2Cc3n[nH]cc3C[C@H]21.Cl [QUINPIROLE HYDROCHLORIDE]
Response given: 40

Challenge: Using known records, supply Population Apoptotic (%) for CN1CCN(c2nc3cc(C(F)(F)F)ccc3n3cccc23)CC1.O=C(O)/C=C\C(=O)O.O=C(O)/C=C\C(=O)O
Response given: 50

Challenge: Using known records, supply Population Apoptotic (%) for COc1cc(C(=O)N(CCCc2ccccc2)Cc2ccc(CC(=O)O)cc2)cc(OC)c1C
Response given: 32

Challenge: Using known records, supply Population Apoptotic (%) for O=C(O)c1cc2ccccc2c(Cc2c(O)c(C(=O)O)cc3ccccc23)c1O [PAMOIC ACID]
Response given: 24

Challenge: Using known records, supply Population Apoptotic (%) for O=C(O)Cc1ccccc1Nc1c(Cl)cccc1Cl [DICLOFENAC]
Response given: 36

Challenge: Using known records, supply Population Apoptotic (%) for Oc1c(CN2CCN(c3ccccn3)CC2)cc(Cl)c2cccnc12
Response given: 83

Challenge: Using known records, supply Population Apoptotic (%) for COc1c(C)cc(NC(=O)c2nn(Cc3ccc(F)cc3)c3c2CN(C(=O)c2ccc[nH]2)C[C@]3(C)C(N)=O)cc1C
Response given: 60

Challenge: Using known records, supply Population Apoptotic (%) for CC(C)(C)c1ccc(S(=O)(=O)Nc2ccc(Cl)cc2C(=O)c2cc[n+]([O-])cc2)cc1 [VERCIRNON]
Response given: 21

Challenge: Using known records, supply Population Apoptotic (%) for Cc1ccc(C(C)(O)c2nc3ccccc3s2)c(C)c1 (stereo not drawn)
Response given: 33

Challenge: Using known records, supply Population Apoptotic (%) for C[C@H]1[C@H]2CC[C@H]3[C@@H]4CC=C5C[C@@H](N(C)C)CC[C@]5(C)[C@H]4CC[C@]23CN1C [CONESSINE]
Response given: 27

Challenge: Using known records, supply Population Apoptotic (%) for CNC[C@H](O)c1ccc(O)c(O)c1 [EPINEPHRINE]
Response given: 33

Challenge: Using known records, supply Population Apoptotic (%) for Cc1ccc(/C(=C\CN2CCCC2)c2ccccn2)cc1 [TRIPROLIDINE]
Response given: 43

Challenge: Using known records, supply Population Apoptotic (%) for CC[C@H]1OC(=O)[C@H](C)[C@@H](O[C@H]2C[C@@](C)(OC)[C@@H](O)[C@H](C)O2)[C@H](C)[C@@H](O[C@@H]2O[C@H](C)C[C@H](N(C)C)[C@H]2O)[C@@]2(C)CC(C)=C(O2)[C@H](C)[C@@H](O)[C@]1(C)O
Response given: 50
